- Assay Name: qHTS assay to identify small molecule agonists of the androgen receptor (AR) signaling pathway in the presence of an antagonist - cell viability counter screen (AID 1259379); note: nearly all actives have a fitted effect of over 25% in size
- Test Parameters: MDA-kb2 viability, CellTiter-Fluor, 16 h; series mostly up to 92.4 µM
Results filed as inconclusive are left out. The source made the active and inactive calls. Calls come from the whole dose curve; as a rule, active = well fitted cell-killing curve with a large enough effect in the repeat runs; inconclusive = weak or mixed curves, or effect the other way; inactive = flat fitted curve, though single readings scatter.
// classify into active, inactive

Could you kindly confirm the outcome this assay logged for `CC[C@@H]1C[C@H](N(Cc2cc(C(F)(F)F)cc(C(F)(F)F)c2)C(C)=O)c2cc(C(F)(F)F)ccc2N1C(=O)OC(C)C` ?
inactive

Entry CC(Cc1cccc(C(F)(F)F)c1)NCCOC(=O)c1ccccc1 (stereo not given) : call = ?
inactive

State the result this test recorded for `CC(=O)OCCc1ccccc1` .
inactive

Record lookup: outcome of this test for CC1=CCC(C(C)C)C=C1 (stereo not given) ?
inactive

// return assay outcome for `C#CCOC(=O)[C@@H](C)Oc1ccc(Oc2ncc(Cl)cc2F)cc1`
inactive

For `O=C(O)Cc1cc(I)c(Oc2ccc(O)c(I)c2)c(I)c1` , what call appears in the results of this test?
inactive

Called result for O=C(O)C1CCC(C(=O)O)CC1 (stereo not given)
inactive

Write down the call the test reported for this molecule. Item: `C=CC[N+]1([C@H]2C[C@H]3[C@@H]4CC[C@H]5C[C@H](OC(C)=O)[C@@H](N6CCCCC6)C[C@]5(C)[C@H]4CC[C@]3(C)[C@H]2OC(=O)CC)CCCCC1`
inactive

Look up the recorded call for `Oc1ccc(Cc2ccccc2)cc1` in this test.
inactive

How was `CCCCCCCCCC=O` classified in this test?
inactive

Give the logged outcome of this assay for the following molecule: CC(C)NCC(O)c1cc(O)cc(O)c1 (stereo not given)
inactive

Test call for this molecule, please: `C=Cc1c(C)c2cc3[nH]c(cc4nc(cc5nc(cc1[nH]2)C(C)=C5CCC(=O)O)C(CCC(=O)O)=C4C)c(C)c3C=C`
active

GET /call?item= `CN1CCC[C@@H]1c1cccnc1` returns the recorded outcome of this test.
inactive

How was O=C=NC1CCC(CC2CCC(N=C=O)CC2)CC1 (stereo not given) classified in this test?
active

Outcome? CC(C)CCCC(C)CCO (stereo not given)
inactive

So what was the verdict on COc1ccc2[nH]c(S(=O)Cc3ncc(C)c(OC)c3C)nc2n1 (stereo not given) in this test?
inactive

What did this assay record as the result for `Oc1ccc2c(c1)OCO2` ?
inactive

Test call, this molecule: `Cc1cc(NC(=O)C(=O)O)cc(C)c1Oc1ccc(O)c2c1CCC2`
inactive

Please state the recorded outcome for this molecule: `CN1CCC(OC(c2ccccc2)c2ccccc2)CC1`
inactive

Outcome? OCC1CC2CC1C1CCC(CO)C21 (stereo not given)
inactive

I would be grateful if you could indicate the recorded call for `CCOc1ccc(NC(=O)CC(C)=O)cc1` .
inactive

So what was the verdict on NC1CCN(c2nc3c(cc2F)c(=O)c(C(=O)O)cn3-c2ccc(F)cc2F)C1 (stereo not given) in this test?
inactive

Called result for `CCCC(=O)OCC`
inactive

Answer briefly: the call reported for `Nc1ccc(C(=O)Nc2ccccc2N)cc1` in this assay.
inactive

Field: outcome | Entry: `CCCCOc1ccc(CC(=O)NO)cc1`
inactive
